Catalogue of ADCC cytotoxic activity (51Cr release) against Caki-2 values
system: T1, human CAPRIN-1 expressed on the surface of human cancer cells (human, UniProt Q14444 2-709); also: test concentration or dose not given here
T1 sequence: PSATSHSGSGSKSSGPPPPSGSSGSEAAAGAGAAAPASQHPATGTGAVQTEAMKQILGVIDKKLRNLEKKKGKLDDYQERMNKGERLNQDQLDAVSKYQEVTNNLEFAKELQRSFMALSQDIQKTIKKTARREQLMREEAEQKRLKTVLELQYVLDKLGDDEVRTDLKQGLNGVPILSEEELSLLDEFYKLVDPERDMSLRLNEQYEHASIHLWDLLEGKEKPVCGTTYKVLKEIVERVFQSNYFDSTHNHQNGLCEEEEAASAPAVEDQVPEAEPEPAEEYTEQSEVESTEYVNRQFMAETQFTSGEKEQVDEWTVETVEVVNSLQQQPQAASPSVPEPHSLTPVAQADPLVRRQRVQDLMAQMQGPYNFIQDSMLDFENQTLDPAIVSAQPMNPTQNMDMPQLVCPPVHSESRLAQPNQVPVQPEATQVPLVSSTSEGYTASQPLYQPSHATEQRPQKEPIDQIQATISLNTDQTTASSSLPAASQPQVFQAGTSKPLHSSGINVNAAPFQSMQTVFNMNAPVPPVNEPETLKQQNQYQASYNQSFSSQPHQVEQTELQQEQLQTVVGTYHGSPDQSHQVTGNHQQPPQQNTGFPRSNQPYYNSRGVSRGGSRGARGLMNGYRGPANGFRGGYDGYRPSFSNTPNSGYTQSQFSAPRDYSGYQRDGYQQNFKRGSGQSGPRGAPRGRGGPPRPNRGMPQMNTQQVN
test.summary: cell-based or functional assay
measurement.name: ADCC cytotoxic activity (51Cr release) against Caki-2

- binder: "human-chicken chimeric monoclonal antibody #3 (antibody, V domains shown) VH: AVTLDESGGGLQTPGGGLSLVCKGSGFTFSSFGMFWVRQAPGKGLEFVASISDNGRSTYYGSAVKGRATISRDDGQSTVRLQLNNLRAEDTGTYYCAKNAYVGRGCCFSYSIDAWGHGTEVIVS VL: ALTQPASVSVNPGETVKITCSGGGSSSDAYGWYQQKSPGSAPVTLIYNGSNRPSHIPSRFSGSTSGSTNTLTITGVQVEDEAIYFCGSTDTSTSVGIFGAGTTLTV"
  recorded.result: "≥ 34%"
- binder: "human-mouse chimeric comparative monoclonal antibody 4 (antibody, human IgG1, kappa, V domains shown) VH: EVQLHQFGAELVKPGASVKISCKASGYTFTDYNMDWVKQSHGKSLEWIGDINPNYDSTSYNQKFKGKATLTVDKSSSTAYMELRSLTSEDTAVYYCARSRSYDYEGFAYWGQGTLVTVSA VL: SGDRVSLSCRASQSISNYLHWYQQKSHESPRLLIKYASQSISGIPSRFSGSGSGTDFTLSINSVETEDFGMYFCQQSNSWPYTFGAGTKLEIKQ"
  recorded.result: "< 8%"
- binder: "human-chicken chimeric monoclonal antibody #1 (antibody, V domains shown) VH: AVTLDESGGGLQTPGGALSLVCKASGFTFRSHSMFWVRQAPGKGLEYVAGIYGVGRSIRYGSAVKGRATMSRDNGQSTVRLQLNNLRAEDTATYYCAKSGYFSNSRYWDSGAYFIDAWGHGTEVIVS VL: ALTQPASVSANPGETVEITCSGGYSNYGWYQQKSPGSAPVTVIYYNDKRPSDIPSRFSGSKSGSTATLTITGVQAEDEAVYFCGGYDSSTDAGIFGAGTTLTV"
  recorded.result: "≥ 34%"
